Assign protein stability index to each entry below.
B1: PTPN9 (parent)
chain: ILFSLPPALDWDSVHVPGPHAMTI

- Variants of: B1
- testDetails: protein stability index of a GFP-peptide fusion (GPS, HEK-293T) (PSI 1-6); higher = more stable;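 note: lentivirally expressed fusions sorted by FACS into six bins by GFP to DsRed ratio, PSI derived from sequencing read proportions per bin multiplied by bin number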
- conditionsUsed: c terminus: a fixed tail appended
// print number alone

Given F3P , state its recorded protein stability index.
2.27

Quick one: G18L
4.77

Please answer likewise for P7V
4.23

And S4A ?
2.31

Can you check V14H next?
2.43

Further, for H15G ?
2.83

Please do the same for T23G as well.
3.89

Subsequent entry: L2Q
2.47

Now consider H20E and answer again.
1.59

// repeat for L9I and report
1.96

Please give the result for V16R too.
2.68

Now try A21S .
3.61

// next record P19E
2.35

Same question, S13I this time
3.25

Repeat with P7Q
2.33

What about W11M ?
2.73

Field entry: L9Y
4.25

Now this one: M22F
1.73

Param item: I24H
1.63

What do you have for M22T ?
1.75

Could you do the same for H20Y , please?
3.11

One more variant: V14K
1.66
